target_of_assay: soluble guanylate cyclase (sGC), α1 and β1 subunits of guanylate cyclase expressed in Sf9 cells (Homo sapiens, UniProt Q02108+Q02153)
Construct: made in house; host or cells: Sf9 insect cells (baculovirus co-infection)
Sequence (Q02108 1-690): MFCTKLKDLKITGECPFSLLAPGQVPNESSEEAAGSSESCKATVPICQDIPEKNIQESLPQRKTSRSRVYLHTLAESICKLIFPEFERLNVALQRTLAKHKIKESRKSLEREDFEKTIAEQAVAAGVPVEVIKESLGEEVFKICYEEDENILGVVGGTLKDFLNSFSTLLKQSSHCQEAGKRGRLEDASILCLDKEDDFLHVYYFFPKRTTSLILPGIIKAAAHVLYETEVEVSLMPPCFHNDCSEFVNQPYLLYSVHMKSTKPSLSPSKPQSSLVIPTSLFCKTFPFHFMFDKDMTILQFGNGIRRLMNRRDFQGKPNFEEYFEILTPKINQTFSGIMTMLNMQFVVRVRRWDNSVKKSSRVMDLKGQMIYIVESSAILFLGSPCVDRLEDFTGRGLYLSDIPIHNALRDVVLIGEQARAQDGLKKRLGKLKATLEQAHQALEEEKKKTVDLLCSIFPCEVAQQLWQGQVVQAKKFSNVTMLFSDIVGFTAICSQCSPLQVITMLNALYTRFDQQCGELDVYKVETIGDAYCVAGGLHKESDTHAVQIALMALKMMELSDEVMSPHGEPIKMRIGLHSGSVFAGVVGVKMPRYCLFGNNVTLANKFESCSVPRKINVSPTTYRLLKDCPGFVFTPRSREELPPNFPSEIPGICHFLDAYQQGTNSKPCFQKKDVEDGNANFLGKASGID
Sequence (Q02153 1-619): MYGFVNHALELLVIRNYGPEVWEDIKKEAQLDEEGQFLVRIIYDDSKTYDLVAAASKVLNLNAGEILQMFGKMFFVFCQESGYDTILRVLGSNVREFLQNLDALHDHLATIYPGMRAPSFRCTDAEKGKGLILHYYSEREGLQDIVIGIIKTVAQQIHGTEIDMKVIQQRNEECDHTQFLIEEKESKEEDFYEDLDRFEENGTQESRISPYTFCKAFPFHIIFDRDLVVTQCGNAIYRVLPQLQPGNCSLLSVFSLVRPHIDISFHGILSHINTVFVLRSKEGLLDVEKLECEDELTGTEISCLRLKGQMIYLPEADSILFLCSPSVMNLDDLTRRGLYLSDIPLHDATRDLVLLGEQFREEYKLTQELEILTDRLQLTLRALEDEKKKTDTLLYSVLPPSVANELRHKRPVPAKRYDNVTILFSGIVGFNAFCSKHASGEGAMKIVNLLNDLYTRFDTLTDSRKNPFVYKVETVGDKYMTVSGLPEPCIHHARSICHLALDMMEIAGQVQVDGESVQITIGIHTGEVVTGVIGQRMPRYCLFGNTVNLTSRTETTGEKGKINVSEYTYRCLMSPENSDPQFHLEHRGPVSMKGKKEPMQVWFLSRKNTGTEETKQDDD
test: Guanylate cyclase assay (formation of cyclic GMP from GTP)
Assay type: biochemical
test_settings: (activity of compound at 100 μM with 1 μM SNP)−(activity of compound at 100 μM)/(activity of SNP at 1 μM)−(basal activity of sGC)
readout_name: Mean activation at 100 μM

Below, each entry is followed by its recorded Mean activation at 100 μM result.
| compound | readout_name | reading |
| --- | --- | --- |
| CC(C)CSc1ccccc1/C=C/C(=O)NC1CCCCC1O (stereo not drawn) [Example 21] | Mean activation at 100 μM | 4.1 |
| COc1ccc(Sc2ccccc2/C=C/C(=O)NC2CCCCC2O)cc1 (stereo not drawn) [Example 49] | Mean activation at 100 μM | 3.7 |
| O=C(/C=C/c1ccccc1SC1CCCCC1)NC1CCC(O)CC1 (stereo not drawn) [Example 26] | Mean activation at 100 μM | 7.9 |
| Cc1ccc(Sc2ccccc2/C=C/C(=O)NC2CCCCC2O)cc1 (stereo not drawn) [Example 47] | Mean activation at 100 μM | 2.8 |

1 = Cc1ccc(/C=C/C(=O)NC2CCC(O)CC2)c(Sc2ccc(Cl)cc2)n1 (stereo not drawn) [Example 28]
2 = CCC(O)CNC(=O)/C=C/c1ccccc1Sc1ccc(Cl)cc1 (stereo not drawn) [Example 39]
IN: Kindly identify which of 1 and 2 has the larger recorded Mean activation at 100 μM value. Lab log: write the label of the selected item as the result.
OUT: 2
(2: 19.3, 1: 2.6)

Sourced from patent US20040121994A1
